Cited source for all entries: ChEMBL document CHEMBL3608241

tested on: Rattus norvegicus; assay: Antiinflammatory activity in Wistar albino rat assessed as inhibition of carrageenan-induced paw edema at 50 mg/kg, po administered 30 mins prior to carrageenan challenge measured after 3 hrs by plethysmometric analysis relative to control; format: functional
Endpoint Name: inhibition in vivo at 50 mg/kg

Smiles Code: Nc1cc(-c2ccc(Cl)cc2)nc2cc(-c3ccccc3)nn12
Reported Value: 28%
//
Smiles Code: Nc1cc(-c2ccc(Br)cc2)nc2cc(-c3ccc(Cl)cc3)nn12
Reported Value: 70.7%
//
Smiles Code: Cc1ccc(-c2cc3nc(-c4ccc(F)cc4)cc(N)n3n2)cc1
Reported Value: 26.8%
//
Smiles Code: Cc1ccc(-c2cc3nc(-c4ccc(Cl)cc4)cc(N)n3n2)cc1
Reported Value: 64.6%
//
Smiles Code: Nc1cc(-c2ccc(Br)cc2)nc2cc(-c3ccccc3)nn12
Reported Value: 56.1%
//
Smiles Code: Cc1ccc(-c2cc(N)n3nc(-c4ccc(Br)cc4)cc3n2)cc1
Reported Value: 73.2%
//
Smiles Code: Cc1ccc(-c2cc3nc(-c4ccc(Br)cc4)cc(N)n3n2)cc1
Reported Value: 56.1%
//
Smiles Code: Nc1cc(-c2ccc(Cl)cc2)nc2cc(-c3ccc(Br)cc3)nn12
Reported Value: 56.1%
//
Smiles Code: Cc1ccc(-c2cc(N)n3nc(-c4ccccc4)cc3n2)cc1
Reported Value: 31.7%
//
Smiles Code: Cc1ccc(-c2cc3nc(-c4ccccc4)cc(N)n3n2)cc1
Reported Value: 34.1%
//
Smiles Code: Cc1ccc(-c2cc(N)n3nc(-c4ccc(Cl)cc4)cc3n2)cc1
Reported Value: 69.5%
